Data provenance: PubChem BioAssay

Measured inhibition, listed per entry for reference.
- METHOD DESCRIPTION: growth suppression of yeast trafficking mutant, preliminary HTS, modulators of trafficking downstream of Golgi apparatus project, 1536-format plate, OD 615 nm (AID 637)
- SETUP CONDITIONS: yeast transport mutant growth, absorbance 615 nm, 18 h; hits give high values
The source made the active and inactive calls. No stated cut-off is given here; in the data, active means inhibition above about 30%; inactive means the rest.

Take a look at these entries with their results.
*Q* # inhibition lookup, item `O=C1CCCN1Cc1ncnn1-c1ccccc1`
*A* -6.55% (inactive)

*Q* # inhibition lookup, item `O=C1c2ccccc2C(=O)N1CCCCN1CCN(CCCCN2C(=O)c3ccccc3C2=O)CC1`
*A* 6.98% (inactive)

***
*Q* # inhibition lookup, item Cc1cccc(NC(=O)C2CCCN(C(=O)Nc3ccccc3)C2)c1C (stereo not given)
*A* 3.11% (inactive)

*Q* # inhibition lookup, item `O=C(NCc1ccco1)c1noc2c1CCCCC2`
*A* -0.95% (inactive)

*Q* # inhibition lookup, item CCN1C(=O)C2(C(C#N)=C(N)Oc3n[nH]c(C(C)C)c32)c2ccccc21 (stereo not given)
*A* -0.81% (inactive)

*Q* # inhibition lookup, item CCOC(=O)c1c(C)oc2c1c(C(c1ccncc1)N1CCOCC1)c(O)c1ccccc12 (stereo not given)
*A* -3.49% (inactive)

====

- METHOD DESCRIPTION: reversal of MRP1-mediated doxorubicin resistance, pilot screen, H69AR cells, doxorubicin co-treatment (AID 601)
- SETUP CONDITIONS: H69AR cells + 2 uM doxorubicin, CellTiter-Glo, 72 h; at 10 µM; hits give high values
Measured differential viability (reversal), listed per entry for reference.
Please state the figure in %; there is no need to write the unit.

Take a look at these entries with their results.
*Q* # differential viability (reversal) lookup, item CCC(C)(C(=O)NC1CCCC1)N(Cc1cccs1)C(=O)Cc1cccs1 (stereo unspecified)
*A* 15.6

*Q* # differential viability (reversal) lookup, item `C/C(=N\O)C(=O)C(CN1CCCCC1)CN1CCCCC1`
*A* 5.9

*Q* # differential viability (reversal) lookup, item `CCOc1ccc(CNc2ccc3c(c2)ncn3C)cc1`
*A* 3.64

*Q* # differential viability (reversal) lookup, item CC(C)Cn1cc(C(=O)NCC2CCCO2)c2c3ccccc3n(C)c2c1=O (stereo unspecified)
*A* 1.72

*Q* # differential viability (reversal) lookup, item `CCCC(=O)Nc1nnc(CC(=O)N2CCCC2)s1`
*A* 7.37

Turning now to a further compound:
*Q* # differential viability (reversal) lookup, item `O=S(=O)(Nn1cnnc1)c1ccccc1Cl`
*A* -3.4

====

- METHOD DESCRIPTION: reversal of MRP1-mediated doxorubicin resistance, pilot screen, H69AR cells, doxorubicin co-treatment (AID 601)
- SETUP CONDITIONS: H69AR cells + 2 uM doxorubicin, CellTiter-Glo, 72 h; at 10 µM; hits give high values
OBSERVATION TYPE: differential viability (reversal) (%)
Please state the figure in %; there is no need to write the unit.

Take a look at these entries with their results.
*Q* # differential viability (reversal) lookup, item `CCCOc1ccccc1NC(=O)c1ccc(N)cc1`
*A* 7.58

*Q* # differential viability (reversal) lookup, item CCC(C)NCC(O)COCc1ccc(Cl)cc1 (configuration not stated)
*A* 11.5

*Q* # differential viability (reversal) lookup, item `CC(C)Oc1cc2oc(=O)c3c(c2cc1Cl)CCC3`
*A* 19.7

*Q* # differential viability (reversal) lookup, item `CCCCOC(=O)Cn1c(=N)n(CCN2CCOCC2)c2ccccc21`
*A* 16.3

*Q* # differential viability (reversal) lookup, item `N=c1sc2ccccc2n1-c1ccccc1`
*A* 6.59

***
*Q* # differential viability (reversal) lookup, item `CCOC(=O)c1c(NC(=O)OC)sc2c1CCC2`
*A* -0.775

*Q* # differential viability (reversal) lookup, item `CC1(C)CC(=O)CC(C)(C)N1OC(=O)c1ccccn1`
*A* 8.9

*Q* # differential viability (reversal) lookup, item `COC(=O)CCC(=O)Nc1ccc(S(=O)(=O)N2CCCCCC2)cc1`
*A* 1.32

*Q* # differential viability (reversal) lookup, item C/C(CC(O)(/C=N/O)c1ccccc1)=N\O (configuration not stated)
*A* 2.94

*Q* # differential viability (reversal) lookup, item `Cc1[nH]nc(-c2ccc(O)c(C)c2O)c1-c1cnn(-c2ccccc2)c1`
*A* 12

*Q* # differential viability (reversal) lookup, item CCN(CC)C(=O)C1=C(C)Nc2nnnn2C1c1cccnc1 (configuration not stated)
*A* 4.5

*Q* # differential viability (reversal) lookup, item `CCCS(=O)(=O)N1CCN(C(=O)CCC2CCCC2)CC1`
*A* 0.865
